Procedure text: Passage on the culture model of the blood-brain barrier (bidirectional permeability)
Format: in vitro ADME, rat
Test parameters: rat, 10 μM; AB (from blood to brain) direction; sampling at 30 minutes; single replicates
Item-by-item account of Papp A→B at 30 min, 10 μM
Parameter: Papp A→B at 30 min, 10 μM (×10⁻⁶ cm/s)

molecule="CN(C)CCNC(=O)c1cc(O)c2ccccc2n1.Cl [comparative 24/2, reference compound]" parameter="Papp A→B at 30 min, 10 μM" u="×10⁻⁶ cm/s" recorded_value=4.2
molecule=O=C(NCCN1CCCC1)c1nc2ccccc2c(O)c1CN1CCOCC1 parameter="Papp A→B at 30 min, 10 μM" u="×10⁻⁶ cm/s" recorded_value=16.4
molecule=CN(C)CCNC(=O)c1nc2ccccc2c(O)c1CN1CCOCC1 parameter="Papp A→B at 30 min, 10 μM" u="×10⁻⁶ cm/s" recorded_value=32.7
molecule="Cl.O=C(NCCN1CCCC1)c1cc(O)c2ccccc2n1 [comparative 24/1, reference compound]" parameter="Papp A→B at 30 min, 10 μM" u="×10⁻⁶ cm/s" recorded_value=5.4
molecule=Cl.O=C(O)c1nc2ccccc2c(O)c1CN1CCOCC1 parameter="Papp A→B at 30 min, 10 μM" u="×10⁻⁶ cm/s" recorded_value=7.4
